# System: ATP;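 also: ATP exposure 15 min at 22 °C before imaging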
# ASSAY: switch fluorescence ratio, 500 uM ATP over buffer (Cy3 cluster intensity, sum of 5 cycles each) (fold (ratio)); higher = stronger signal-on switching upon ATP binding; sequences stand for … in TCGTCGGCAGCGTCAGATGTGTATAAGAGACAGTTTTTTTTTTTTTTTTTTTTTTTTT…TC
# STUDY_CONDITIONS: aptamer strand: ATP DNA aptamer (quencher-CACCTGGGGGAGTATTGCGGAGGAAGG + anchor), 100 nM annealed; ATP concentration: 500 uM
# switch fluorescence ratio >= 1 gives label 1, anything below gives label 0

{"POLYMER_SEQUENCE": "ATTTTACCTC", "ASSIGNED_CATEGORY": "label 1"}
{"POLYMER_SEQUENCE": "TTATCTGGAA", "ASSIGNED_CATEGORY": "label 1"}
{"POLYMER_SEQUENCE": "CATGAATTCA", "ASSIGNED_CATEGORY": "label 1"}
{"POLYMER_SEQUENCE": "ACTTTAGCAG", "ASSIGNED_CATEGORY": "label 1"}
{"POLYMER_SEQUENCE": "GCTGTGGTT", "ASSIGNED_CATEGORY": "label 0"}
{"POLYMER_SEQUENCE": "TCCATTTTAA", "ASSIGNED_CATEGORY": "label 1"}
{"POLYMER_SEQUENCE": "ATCATACGGG", "ASSIGNED_CATEGORY": "label 1"}
{"POLYMER_SEQUENCE": "ATACTATTAT", "ASSIGNED_CATEGORY": "label 1"}
{"POLYMER_SEQUENCE": "TTCCCCATTG", "ASSIGNED_CATEGORY": "label 1"}
{"POLYMER_SEQUENCE": "TTCGAGCTAA", "ASSIGNED_CATEGORY": "label 1"}
{"POLYMER_SEQUENCE": "GTGCCAGGAT", "ASSIGNED_CATEGORY": "label 1"}
{"POLYMER_SEQUENCE": "TCCGGTTGCA", "ASSIGNED_CATEGORY": "label 1"}
{"POLYMER_SEQUENCE": "AGGAAGTGCC", "ASSIGNED_CATEGORY": "label 1"}
{"POLYMER_SEQUENCE": "GGGTCTGAGT", "ASSIGNED_CATEGORY": "label 0"}
{"POLYMER_SEQUENCE": "CGGGCAATCA", "ASSIGNED_CATEGORY": "label 1"}
{"POLYMER_SEQUENCE": "CGCCAGCAGA", "ASSIGNED_CATEGORY": "label 1"}
{"POLYMER_SEQUENCE": "GCTTTTGTTT", "ASSIGNED_CATEGORY": "label 1"}
{"POLYMER_SEQUENCE": "TAAAGGAGAT", "ASSIGNED_CATEGORY": "label 1"}
{"POLYMER_SEQUENCE": "TGGCACGTAT", "ASSIGNED_CATEGORY": "label 1"}
{"POLYMER_SEQUENCE": "TGGTAGGGTA", "ASSIGNED_CATEGORY": "label 1"}
{"POLYMER_SEQUENCE": "TACGGCTAAG", "ASSIGNED_CATEGORY": "label 1"}
{"POLYMER_SEQUENCE": "TTTGTAGCAC", "ASSIGNED_CATEGORY": "label 1"}
{"POLYMER_SEQUENCE": "CATTTACACT", "ASSIGNED_CATEGORY": "label 1"}
{"POLYMER_SEQUENCE": "TGCAGAGGAA", "ASSIGNED_CATEGORY": "label 1"}
{"POLYMER_SEQUENCE": "CGTTGGGGCG", "ASSIGNED_CATEGORY": "label 0"}
{"POLYMER_SEQUENCE": "TCCTTAGTTC", "ASSIGNED_CATEGORY": "label 0"}
{"POLYMER_SEQUENCE": "GACACGGGCG", "ASSIGNED_CATEGORY": "label 1"}
{"POLYMER_SEQUENCE": "CGGTCCAGTA", "ASSIGNED_CATEGORY": "label 0"}
{"POLYMER_SEQUENCE": "GATGTGAAAG", "ASSIGNED_CATEGORY": "label 0"}
